tested on: HIV-1; experiment: HIV-1 single-round infectious luciferase reporter virus (pseudotype) assay in HeLa CD4 CCR5 cells; type: cell-based; details: Human immunodeficiency virus 1, HeLa-CD4/CCR5, read-out: EC50 category, initial pseudotype assay; key in Table A1
pEC50: −log10 of the molar value.
For each record, write down the corresponding pEC50.

For "COc1cnc(-n2nccn2)c2[nH]cc(C(=O)C(=O)N3CCN(C(=O)c4ccccc4)[C@H](C)C3)c12" , what is its reported pEC50?
6.00 to 9.70

For "O=C(C(=O)N1CCN(C(=O)c2ccccc2)CC1)c1c[nH]c2c(-n3nccn3)ncc(F)c12" , what is its reported pEC50?
6.00 to 9.70

For "COc1cnc(-n2ncc(C)n2)c2[nH]cc(C(=O)C(=O)N3CCN(C(=O)c4ccccc4)CC3)c12" , what is its reported pEC50?
6.00 to 9.70

For "COc1cnc(-n2ncc(C)n2)c2[nH]cc(C(=O)C(=O)N3CCN(C(=O)c4ccccc4)[C@H](C)C3)c12" , what is its reported pEC50?
> 9.70

---

system: HeLa cells; test: Cytotoxicity assay in HeLa cells (MTT dye reduction, CC50); conditions: cytotoxicity; Yes = CC50 above 100 uM, No = not
Experimental endpoint: CC50 > 100 uM

Here's what some known entries look like.
• C[C@@H]1CN(C(=O)c2ccccc2)CCN1C(=O)C(=O)c1c[nH]c2c(-c3nccs3)ncc(F)c12 [Example 37] = No
• COc1cnc(-c2nccs2)c2[nH]cc(C(=O)C(=O)N3CCN(C(=O)c4ccccc4)CC3)c12 [Example 35] = Yes
• C[C@@H]1CN(C(=O)C(=O)c2c[nH]c3c(-c4ncco4)ccnc23)CCN1C(=O)c1ccccc1 [Example 353] = Yes
• CCc1ncn(-c2ncc(OC)c3c(C(=O)C(=O)N4CCN(C(=O)c5ccccc5)CC4)c[nH]c23)n1 [Example 321] = Yes
• CCc1ccn(-c2ncc(OC)c3c(C(=O)C(=O)N4CCN(C(=O)c5ccccc5)[C@H](C)C4)c[nH]c23)n1 [Example 230] = Yes

Checklist item: CC50 > 100 uM tested on HeLa cells, entry COc1cnc(-n2ccnc2)c2[nH]cc(C(=O)C(=O)N3CCN(C(=O)c4ccccc4)CC3)c12 [Example 193] , value?
No

Checklist item: CC50 > 100 uM tested on HeLa cells, entry O=C(C(=O)N1CCN(C(=O)c2ccccc2)CC1)c1c[nH]c2c(-c3ncco3)ccnc12 [Example 204] , value?
Yes

Checklist item: CC50 > 100 uM tested on HeLa cells, entry COc1cnc(-c2cncnc2)c2[nH]cc(C(=O)C(=O)N3CCN(C(=O)c4ccccc4)CC3)c12 [Example 40] , value?
No

Checklist item: CC50 > 100 uM tested on HeLa cells, entry COc1cnc(-n2cncn2)c2[nH]cc(C(=O)C(=O)N3CCN(C(=O)c4ccccc4)[C@H](C)C3)c12 [Example 245] , value?
Yes

Checklist item: CC50 > 100 uM tested on HeLa cells, entry COc1cnc(-n2cc(C)cn2)c2[nH]cc(C(=O)C(=O)N3CCN(C(=O)c4ccccc4)CC3)c12 [Example 191] , value?
Yes

Checklist item: CC50 > 100 uM tested on HeLa cells, entry Nc1ncn(-c2ncc(F)c3c(C(=O)C(=O)N4CCN(C(=O)c5ccccc5)CC4)c[nH]c23)n1 [Example 313] , value?
Yes

Checklist item: CC50 > 100 uM tested on HeLa cells, entry COc1cnc(-c2cnccn2)c2[nH]cc(C(=O)C(=O)N3CCN(C(=O)c4ccccn4)CC3)c12 [Example 102] , value?
Yes
